Ref: the Human Domainome abundance scans (Beltran et al. 2025)

B1: Intersectin-1, residues 909 to 971; numbered along this chain, Q15811 (parent)
chain: QGEKVEGLQAQALYPWRAKKDNHLNFNKNDVITVLEQQDMWWFGEVQGQKGWFPKSYVKLISG

Variants of: B1
Test: abundance fitness (aPCA) (normalised: wild type 0, dead -1); higher = more abundant; growth selection in yeast, the domain comes from the species named
Settings: Homo sapiens
abundance fitness: recorded values
// return a plain number; no unit text

G63P	-0.01
Q11V	-0.364
V31I	0.011
E6T	-0.215
W42M	-0.192

Problem: Which abundance fitness is reported for this variant? "V46C"
Result: 0.012

Problem: Which abundance fitness is reported for this variant? "N27E"
Result: 0.054

Problem: Which abundance fitness is reported for this variant? "D21L"
Result: -0.012
